These entries and their values trace back to paper PMC8222333.

# system-under-test: d-enCas12a-Ultra (Acidaminococcus sp., UniProt U2UMQ6 1-1307, E174R;S542R;K548R;M537R;F870L;D908A;E993A;D1235A)
# experiment: Spec-seq (native PAGE EMSA with sequencing of bound and unbound); 25 mM Tris-HCl pH 7.4, 150 mM KCl, 5 mM MgCl2, 10% glycerol, 1 mM DTT, 40 ng/uL salmon sperm DNA; 400 nM Cas12a, 480 nM crRNA, 50 nM library, 37 C 1 h; native PAGE at room temperature; high values mean tight binding;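 also: relative affinity from the bound to unbound sequence frequency ratio in Spec-seq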
# test-settings: protein: recombinant
reported-endpoint: binding signal (lnKA)
Reply with just the number (in lnKA).

Check out these entries, answers already filled in.
# binder, unit-of-measurement, binding signal
measured = [
    ("AGCT (dsDNA) DNA 1: GCTATCTAGTGCTCAGTACGCACTGAGCTAGGAAACTTCTGGCAGGACCAGGTCATGAGATCGGAAGAGCACACGTCTGAACTCCAGTCA DNA 2: TGACTGGAGTTCAGACGTGTGCTCTTCCGATCTCATGACCTGGTCCTGCCAGAAGTTTCCTAGCTCAGTGCGTACTGAGCACTAGATAGC RNA: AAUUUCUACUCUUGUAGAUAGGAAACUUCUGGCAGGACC", "lnKA", -1.83),
    ("CTCA (dsDNA) DNA 1: GCTATCTAGTGCTCAGTACGCACTGCTCAAGGAAACTTCTGGCAGGACCAGGTCATGAGATCGGAAGAGCACACGTCTGAACTCCAGTCA DNA 2: TGACTGGAGTTCAGACGTGTGCTCTTCCGATCTCATGACCTGGTCCTGCCAGAAGTTTCCTTGAGCAGTGCGTACTGAGCACTAGATAGC RNA: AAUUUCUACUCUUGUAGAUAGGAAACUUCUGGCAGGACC", "lnKA", -0.439),
]

Query: Would you kindly share the measured binding signal for GGCA (dsDNA) DNA 1: GCTATCTAGTGCTCAGTACGCACTGGGCAAGGAAACTTCTGGCAGGACCAGGTCATGAGATCGGAAGAGCACACGTCTGAACTCCAGTCA DNA 2: TGACTGGAGTTCAGACGTGTGCTCTTCCGATCTCATGACCTGGTCCTGCCAGAAGTTTCCTTGCCCAGTGCGTACTGAGCACTAGATAGC RNA: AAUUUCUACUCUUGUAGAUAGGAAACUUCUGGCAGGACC ?
Result: -1.64
